Taken from ChEMBL document CHEMBL4765295.

- Tested on: Peritoneal macrophage
- experiment.summary: Antiinflammatory activity in […] mouse Peritoneal macrophages assessed as reduction in LPS-induced NO production by measuring reduction in stimulation index at 10 uM preincubated for 1 hr followed by LPS stimulation measured after 24 hrs by Griess method (reference value: 27.31 +/- 2.56 uM)
- Assay type: functional
- run.parameters: time 25 hrs
Listed molecules paired with reported Activity

# smiles.record, Activity [µM]
data = [
    ("COc1cc(/C=C/C(=O)/C=C(O)/C=C/c2ccc(OC(=O)[C@H](CCSC)NC(=O)OCc3ccccc3)c(OC)c2)ccc1OC(=O)[C@H](CCSC)NC(=O)OCc1ccccc1", 15.17),
    ("COc1cc(/C=C/C(=O)/C=C(O)/C=C/c2ccc(OC(=O)CCNC(=O)OC(C)(C)C)c(OC)c2)ccc1OC(=O)CCNC(=O)OC(C)(C)C", 18.35),
    ("COc1cc(/C=C/C(=O)/C=C(O)/C=C/c2ccc(OC(=O)[C@H](C)N)c(OC)c2)ccc1OC(=O)[C@H](C)N.Cl.Cl", 14.68),
    ("COc1cc(/C=C/C(=O)CC(=O)/C=C/c2ccc(O)c(OC)c2)ccc1O", 17.18),
    ("CC[C@H](C)[C@H](N)C(=O)Oc1ccc(/C=C/C(=O)/C=C(O)/C=C/c2ccc(OC(=O)[C@@H](N)[C@@H](C)CC)c(OC)c2)cc1OC.Cl.Cl", 17.63),
    ("COc1cc(/C=C/C(=O)/C=C(O)/C=C/c2ccc(OC(=O)[C@@H](NC(=O)OCc3ccccc3)C(C)C)c(OC)c2)ccc1OC(=O)[C@@H](NC(=O)OCc1ccccc1)C(C)C", 25.76),
    ("COc1cc(/C=C/C(=O)/C=C(O)/C=C/c2ccc(OC(=O)CNC(=O)OC(C)(C)C)c(OC)c2)ccc1OC(=O)CNC(=O)OC(C)(C)C", 18.12),
    ("COc1cc(/C=C/C(=O)/C=C(O)/C=C/c2ccc(OC(=O)[C@H](CCSC)NC(=O)OC(C)(C)C)c(OC)c2)ccc1OC(=O)[C@H](CCSC)NC(=O)OC(C)(C)C", 16.16),
    ("COc1cc(/C=C/C(=O)/C=C(O)/C=C/c2ccc(OC(=O)[C@@H](N)CCC(N)=O)c(OC)c2)ccc1OC(=O)[C@@H](N)CCC(N)=O.Cl.Cl", 21.75),
]

* * *

Listed compounds paired with reported Activity
- System: Rattus norvegicus
- experiment.summary: Antiinflammatory activity in Wistar rat model of carrageenan-induced paw edema assessed as reduction in thickness of paw edema at 10 mg/kg, ip pretreated for 1 hr followed by carrageenan challenge and measured after 4 hrs (reference value: 1.40 +/-0.10 mm)
- Type: functional
- run.parameters: time 5 hrs

# compound, Activity [mm]
rows = [
    ("COc1cc(/C=C/C(=O)/C=C(O)/C=C/c2ccc(OC(=O)C(C)N)c(OC)c2)ccc1OC(=O)C(C)N.Cl.Cl (stereo unspecified)", 0.22),
    ("COc1cc(/C=C/C(=O)/C=C(O)/C=C/c2ccc(OC(=O)[C@H](Cc3ccccc3)NC(=O)OCc3ccccc3)c(OC)c2)ccc1OC(=O)[C@H](Cc1ccccc1)NC(=O)OCc1ccccc1", 1.38),
    ("COc1cc(/C=C/C(=O)/C=C(O)/C=C/c2ccc(OC(=O)[C@H](CCSC)NC(=O)OCc3ccccc3)c(OC)c2)ccc1OC(=O)[C@H](CCSC)NC(=O)OCc1ccccc1", 0.17),
    ("COc1cc(/C=C/C(=O)/C=C(O)/C=C/c2ccc(OC(=O)[C@H](CCC(N)=O)NC(=O)OC(C)(C)C)c(OC)c2)ccc1OC(=O)[C@H](CCC(N)=O)NC(=O)OC(C)(C)C", 0.83),
    ("COc1cc(/C=C/C(=O)/C=C(O)/C=C/c2ccc(OC(=O)CNC(=O)OC(C)(C)C)c(OC)c2)ccc1OC(=O)CNC(=O)OC(C)(C)C", 0.73),
    ("COc1cc(/C=C/C(=O)/C=C(O)/C=C/c2ccc(OC(=O)[C@H](C)N)c(OC)c2)ccc1OC(=O)[C@H](C)N.Cl.Cl", 0.47),
]
